Below are pKi values recorded for UniProt:Q07817.
Sequence (Q07817 whole entry): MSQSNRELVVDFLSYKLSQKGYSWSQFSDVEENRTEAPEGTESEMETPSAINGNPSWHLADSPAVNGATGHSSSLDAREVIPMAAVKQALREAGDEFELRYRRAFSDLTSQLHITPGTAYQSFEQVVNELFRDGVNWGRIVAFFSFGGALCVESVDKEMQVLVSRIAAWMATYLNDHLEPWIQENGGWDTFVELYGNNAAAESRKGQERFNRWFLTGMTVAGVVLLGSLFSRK
pKi: −log10 of the molar value.
property-measured: pKi

compound | lt-gt-eq | value-measured
CC1(C)CC(c2ccc(Cl)cc2)=C2CN3CCN(c4ccc(C(=O)NS(=O)(=O)c5ccc(NC[C@H]6CC[C@@](C)(O)CC6)c([N+](=O)[O-])c5)c(N5CCCOc6nc7[nH]ccc7cc65)c4)C[C@H]3COCCCO[C@@H]2C1 | = | 7.95
CC1(C)CC(c2ccc(Cl)cc2)=C2CN3CCN(c4ccc(C(=O)NS(=O)(=O)c5cnc(OCC6(F)CCOCC6)c(Cl)c5)c(N5CCCOc6nc7[nH]ccc7cc65)c4)C[C@H]3COCCCO[C@@H]2C1 | < | 6.18
CC1(C)CC(c2ccc(Cl)cc2)=C2CN3CCN(c4ccc(C(=O)NS(=O)(=O)c5ccc(NC[C@H]6COCCO6)c([N+](=O)[O-])c5)c(N5CCCOc6nc7[nH]ccc7cc65)c4)C[C@H]3COCCCO[C@@H]2C1 | = | 8.24
COC1(CNc2ccc(S(=O)(=O)NC(=O)c3ccc(N4CCN5CC6=C(c7ccc(Cl)cc7)CC(C)(C)C[C@H]6OCCCOC[C@@H]5C4)cc3N3CCCOc4nc5[nH]ccc5cc43)cc2[N+](=O)[O-])CCOCC1 | = | 7.39
CO[C@H]1C[C@H](Nc2ccc(S(=O)(=O)NC(=O)c3ccc(N4CCN5CC6=C(c7ccc(Cl)cc7)CC(C)(C)C[C@H]6OCCCOC[C@@H]5C4)cc3N3CCCOc4nc5[nH]ccc5cc43)cc2[N+](=O)[O-])C1 | = | 7.41
COCC1(F)CC(CNc2ccc(S(=O)(=O)NC(=O)c3ccc(N4CCN5CC6=C(c7ccc(Cl)cc7)CC(C)(C)C[C@H]6OCCCOC[C@@H]5C4)cc3N3CCCOc4nc5[nH]ccc5cc43)cc2[N+](=O)[O-])C1 (some centres undefined) | = | 7.59
CC1(C)CC(c2ccc(Cl)cc2)=C2CN3CCN(c4ccc(C(=O)NS(=O)(=O)c5ccc(NCC6(O)CCOCC6)c([N+](=O)[O-])c5)c(N5CCCOc6nc7[nH]ccc7cc65)c4)C[C@H]3COCCCO[C@@H]2C1 | = | 8.08
CC1(C)CC(c2ccc(Cl)cc2)=C2CN3CCN(c4ccc(C(=O)NS(=O)(=O)c5ccc(NC[C@H]6CC[C@](C)(O)CC6)c(Cl)c5)c(N5CCCOc6nc7[nH]ccc7cc65)c4)C[C@H]3COCCCO[C@@H]2C1 | = | 7.53
CC1(C)CC(c2ccc(Cl)cc2)=C2CN3CCN(c4ccc(C(=O)NS(=O)(=O)c5ccc(NC[C@H]6CC[C@](C)(O)CO6)c([N+](=O)[O-])c5)c(N5CCCOc6nc7[nH]ccc7cc65)c4)C[C@H]3COCCCO[C@@H]2C1 | = | 8.03

* * *

System: MOLT-4
test-name: Cytotoxicity against human MOLT-4 cells assessed as reduction in cell viability by CellTiter-Glo assay
Format: functional, cell-based
pEC50: −log10 of the molar value.
Binary call on pEC50: yes (1) from 6 upward, no (0) beneath that.

compound | label
COC1(CNc2ccc(S(=O)(=O)NC(=O)c3ccc(N4CCN5CC6=C(c7ccc(Cl)cc7)CC(C)(C)C[C@H]6OCCCOC[C@@H]5C4)cc3N3CCCOc4nc5[nH]ccc5cc43)cc2[N+](=O)[O-])CCOCC1 | no (0)
CO[C@H]1CC[C@H](CNc2ccc(S(=O)(=O)NC(=O)c3ccc(N4CCN5CC6=C(c7ccc(Cl)cc7)CC(C)(C)C[C@H]6OCCCOC[C@@H]5C4)cc3N3CCCOc4nc5[nH]ccc5cc43)cc2[N+](=O)[O-])OC1 | no (0)
CC1(C)CC(c2ccc(Cl)cc2)=C2CN3CCN(c4ccc(C(=O)NS(=O)(=O)c5ccc(NC[C@H]6CC[C@](C)(O)CC6)c(Cl)c5)c(N5CCCOc6nc7[nH]ccc7cc65)c4)C[C@H]3COCCCO[C@@H]2C1 | no (0)
CC1(C)CC(c2ccc(Cl)cc2)=C2CN3CCN(c4ccc(C(=O)NS(=O)(=O)c5cnc(OCC6(F)CCOCC6)c(Cl)c5)c(N5CCCOc6nc7[nH]ccc7cc65)c4)C[C@H]3COCCCO[C@@H]2C1 | no (0)
CO[C@H]1C[C@H](Nc2ccc(S(=O)(=O)NC(=O)c3ccc(N4CCN5CC6=C(c7ccc(Cl)cc7)CC(C)(C)C[C@H]6OCCCOC[C@@H]5C4)cc3N3CCCOc4nc5[nH]ccc5cc43)cc2[N+](=O)[O-])C1 | no (0)
CC1(C)CC(c2ccc(Cl)cc2)=C2CN3CCN(c4ccc(C(=O)NS(=O)(=O)c5ccc(NCC6(O)CCOCC6)c([N+](=O)[O-])c5)c(N5CCCOc6nc7[nH]ccc7cc65)c4)C[C@H]3COCCCO[C@@H]2C1 | yes (1)
COCC1(F)CC(CNc2ccc(S(=O)(=O)NC(=O)c3ccc(N4CCN5CC6=C(c7ccc(Cl)cc7)CC(C)(C)C[C@H]6OCCCOC[C@@H]5C4)cc3N3CCCOc4nc5[nH]ccc5cc43)cc2[N+](=O)[O-])C1 (stereo partly specified) | no (0)
CC1(C)CC(c2ccc(Cl)cc2)=C2CN3CCN(c4ccc(C(=O)NS(=O)(=O)c5ccc(NC[C@H]6CC[C@@](C)(O)CC6)c([N+](=O)[O-])c5)c(N5CCCOc6nc7[nH]ccc7cc65)c4)C[C@H]3COCCCO[C@@H]2C1 | yes (1)

* * *

Below are pKi values recorded for Apoptosis regulator Bcl-2 (Homo sapiens, UniProt P10415).
pKi: −log10 of the molar value.

structure-string | pKi
CC1(C)CC(c2ccc(Cl)cc2)=C2CN3CCN(c4ccc(C(=O)NS(=O)(=O)c5ccc(NC[C@H]6CC[C@@](C)(O)CC6)c([N+](=O)[O-])c5)c(N5CCCOc6nc7[nH]ccc7cc65)c4)C[C@H]3COCCCO[C@@H]2C1 | 10.21
CC1(C)CC(c2ccc(Cl)cc2)=C2CN3CCN(c4ccc(C(=O)NS(=O)(=O)c5ccc(NCC6(O)CCOCC6)c([N+](=O)[O-])c5)c(N5CCCOc6nc7[nH]ccc7cc65)c4)C[C@H]3COCCCO[C@@H]2C1 | 9.65
CO[C@H]1C[C@H](Nc2ccc(S(=O)(=O)NC(=O)c3ccc(N4CCN5CC6=C(c7ccc(Cl)cc7)CC(C)(C)C[C@H]6OCCCOC[C@@H]5C4)cc3N3CCCOc4nc5[nH]ccc5cc43)cc2[N+](=O)[O-])C1 | 8.59
CC1(C)CC(c2ccc(Cl)cc2)=C2CN3CCN(c4ccc(C(=O)NS(=O)(=O)c5ccc(NC[C@H]6COCCO6)c([N+](=O)[O-])c5)c(N5CCCOc6nc7[nH]ccc7cc65)c4)C[C@H]3COCCCO[C@@H]2C1 | 10.47

* * *

Below are Ki values recorded for Apoptosis regulator Bcl-2 (Homo sapiens).

compound | subject-of-test | Ki [pM]
CC1(C)CC(c2ccc(Cl)cc2)=C2CN3CCN(c4ccc(C(=O)NS(=O)(=O)c5ccc(NC[C@H]6CC[C@](C)(O)CO6)c([N+](=O)[O-])c5)c(N5CCCOc6nc7[nH]ccc7cc65)c4)C[C@H]3COCCCO[C@@H]2C1 | Apoptosis regulator Bcl-2 (Homo sapiens) | 49
COC1(CNc2ccc(S(=O)(=O)NC(=O)c3ccc(N4CCN5CC6=C(c7ccc(Cl)cc7)CC(C)(C)C[C@H]6OCCCOC[C@@H]5C4)cc3N3CCCOc4nc5[nH]ccc5cc43)cc2[N+](=O)[O-])CCOCC1 | Apoptosis regulator Bcl-2 (Homo sapiens) | 2090
COCC1(F)CC(CNc2ccc(S(=O)(=O)NC(=O)c3ccc(N4CCN5CC6=C(c7ccc(Cl)cc7)CC(C)(C)C[C@H]6OCCCOC[C@@H]5C4)cc3N3CCCOc4nc5[nH]ccc5cc43)cc2[N+](=O)[O-])C1 (stereo partly drawn) | Apoptosis regulator Bcl-2 (Homo sapiens) | 280

* * *

Tested on: MOLT-4
test-name: Cytotoxicity against human MOLT-4 cells assessed as reduction in cell viability by CellTiter-Glo assay
Assay type: functional, cell-based
pEC50: −log10 of the molar value.

structure-string | pEC50
CC1(C)CC(c2ccc(Cl)cc2)=C2CN3CCN(c4ccc(C(=O)NS(=O)(=O)c5ccc(NC[C@H]6CC[C@H](O)CO6)c([N+](=O)[O-])c5)c(N5CCCOc6nc7[nH]ccc7cc65)c4)C[C@H]3COCCCO[C@@H]2C1 | 6.08
CC1(C)CC(c2ccc(Cl)cc2)=C2CN3CCN(c4ccc(C(=O)NS(=O)(=O)c5ccc(NC[C@H]6COCCO6)c([N+](=O)[O-])c5)c(N5CCCOc6nc7[nH]ccc7cc65)c4)C[C@H]3COCCCO[C@@H]2C1 | 5.85
CC1(C)CC(c2ccc(Cl)cc2)=C2CN3CCN(c4ccc(C(=O)NS(=O)(=O)c5ccc(NC[C@H]6CC[C@](C)(O)CO6)c([N+](=O)[O-])c5)c(N5CCCOc6nc7[nH]ccc7cc65)c4)C[C@H]3COCCCO[C@@H]2C1 | 5.92

Sourced from ChEMBL document CHEMBL5365550
